assayedTarget: Nav1.7 (or SCN9A) channel (Homo sapiens)
Construct: expressed in transfected cells
Sequence (Q15858 whole entry): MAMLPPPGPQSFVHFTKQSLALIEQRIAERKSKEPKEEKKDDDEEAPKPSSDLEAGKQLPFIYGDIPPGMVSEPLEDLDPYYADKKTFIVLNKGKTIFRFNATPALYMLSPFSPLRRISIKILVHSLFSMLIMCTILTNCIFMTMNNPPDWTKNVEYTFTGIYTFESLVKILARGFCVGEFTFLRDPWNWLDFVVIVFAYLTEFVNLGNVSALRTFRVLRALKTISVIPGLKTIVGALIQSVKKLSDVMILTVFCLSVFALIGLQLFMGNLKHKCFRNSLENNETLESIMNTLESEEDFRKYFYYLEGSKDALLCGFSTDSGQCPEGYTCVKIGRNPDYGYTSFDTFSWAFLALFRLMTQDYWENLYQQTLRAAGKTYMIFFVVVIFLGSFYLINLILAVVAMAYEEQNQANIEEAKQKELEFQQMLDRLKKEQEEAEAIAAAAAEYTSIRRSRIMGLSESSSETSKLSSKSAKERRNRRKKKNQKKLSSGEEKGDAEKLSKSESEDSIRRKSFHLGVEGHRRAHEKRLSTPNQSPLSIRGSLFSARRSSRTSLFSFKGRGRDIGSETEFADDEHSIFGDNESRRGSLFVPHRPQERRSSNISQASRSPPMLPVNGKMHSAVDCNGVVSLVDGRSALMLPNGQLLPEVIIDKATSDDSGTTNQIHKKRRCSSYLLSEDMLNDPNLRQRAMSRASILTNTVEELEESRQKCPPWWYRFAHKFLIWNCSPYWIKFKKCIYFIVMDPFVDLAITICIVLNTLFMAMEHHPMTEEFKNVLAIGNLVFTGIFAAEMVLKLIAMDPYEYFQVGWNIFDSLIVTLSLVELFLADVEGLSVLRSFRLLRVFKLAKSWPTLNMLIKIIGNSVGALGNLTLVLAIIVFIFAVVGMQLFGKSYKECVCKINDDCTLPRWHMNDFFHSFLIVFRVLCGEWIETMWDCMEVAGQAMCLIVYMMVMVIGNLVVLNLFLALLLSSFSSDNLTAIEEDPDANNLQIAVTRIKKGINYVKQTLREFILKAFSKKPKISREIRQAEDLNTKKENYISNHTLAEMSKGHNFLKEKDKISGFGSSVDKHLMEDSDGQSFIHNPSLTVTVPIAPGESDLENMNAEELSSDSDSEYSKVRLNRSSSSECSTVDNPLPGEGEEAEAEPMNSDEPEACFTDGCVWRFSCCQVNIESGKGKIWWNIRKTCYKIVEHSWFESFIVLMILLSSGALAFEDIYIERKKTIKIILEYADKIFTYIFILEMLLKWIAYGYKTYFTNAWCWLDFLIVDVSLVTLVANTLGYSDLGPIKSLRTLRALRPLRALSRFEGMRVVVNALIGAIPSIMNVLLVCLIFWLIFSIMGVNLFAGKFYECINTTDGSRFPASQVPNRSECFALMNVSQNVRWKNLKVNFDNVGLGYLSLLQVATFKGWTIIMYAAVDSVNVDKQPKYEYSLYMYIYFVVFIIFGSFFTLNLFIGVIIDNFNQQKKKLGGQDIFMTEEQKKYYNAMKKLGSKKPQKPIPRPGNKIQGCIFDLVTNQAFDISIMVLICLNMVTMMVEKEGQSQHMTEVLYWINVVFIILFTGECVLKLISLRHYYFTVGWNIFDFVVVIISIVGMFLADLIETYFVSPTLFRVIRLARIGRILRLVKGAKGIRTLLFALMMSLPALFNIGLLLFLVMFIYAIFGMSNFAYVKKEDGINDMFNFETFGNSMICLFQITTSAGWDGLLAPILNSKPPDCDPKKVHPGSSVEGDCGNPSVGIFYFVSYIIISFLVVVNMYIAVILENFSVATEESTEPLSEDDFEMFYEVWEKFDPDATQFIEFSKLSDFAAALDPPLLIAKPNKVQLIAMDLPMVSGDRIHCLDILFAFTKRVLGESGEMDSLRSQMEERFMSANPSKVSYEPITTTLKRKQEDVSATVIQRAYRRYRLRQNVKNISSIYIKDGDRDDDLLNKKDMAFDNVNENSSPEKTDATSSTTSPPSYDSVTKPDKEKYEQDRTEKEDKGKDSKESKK
measurementDescription: Nav1.7 PatchXpress automated whole-cell electrophysiology in HEK cells expressing hSCN9A
Assay type: cell-based
protocolConditions: estimated IC50 from single point data, PatchXpress assay, held at V1/2 of inactivation, read-out: Nav1.7 EIC50
Lab note - cut at 2000 nM for IC50: Condition met if strictly below, Condition not met if not.

molecule="COc1ncc(-c2cc(C(=O)NS(C)(=O)=O)ccc2Oc2ccc(Cl)cc2)cc1F [Example 36]" grouplabel="Condition not met"
molecule="CCCn1cc(-c2cc(C(=O)NS(C)(=O)=O)ccc2Oc2ccc(Cl)cc2)cn1 [Example 41]" grouplabel="Condition not met"
molecule="COc1ccc(Oc2ccc(C(=O)NS(C)(=O)=O)cc2-c2cccnc2OC)c(F)c1 [Example 79]" grouplabel="Condition not met"
molecule="COc1ccc(Oc2ccc(C(=O)NS(C)(=O)=O)cc2-c2cccnc2OC)cn1 [Example 70]" grouplabel="Condition not met"
molecule="COc1cccnc1-c1cc(C(=O)NS(C)(=O)=O)ccc1Oc1ccc(Cl)cc1 [Example 3]" grouplabel="Condition met"
molecule="COc1ncccc1-c1cc(C(=O)NS(C)(=O)=O)ccc1Oc1cc(F)cc(C(F)(F)F)c1 [Example 72]" grouplabel="Condition met"
molecule="COc1ncccc1-c1cc(C(=O)NS(C)(=O)=O)ccc1Oc1cccc(F)c1F [Example 74]" grouplabel="Condition met"
molecule="COc1ccc(-c2cc(C(=O)NS(C)(=O)=O)ccc2Oc2ccc(Cl)cc2)cc1 [Example 50]" grouplabel="Condition met"
molecule="CS(=O)(=O)NC(=O)c1ccc(Oc2ccc(Cl)cc2)c(-c2ccncc2)c1 [Example 21]" grouplabel="Condition not met"
molecule="CCOc1ncccc1-c1cc(C(=O)NS(C)(=O)=O)ccc1Oc1ccc(Cl)cc1 [Example 8]" grouplabel="Condition met"
molecule="COc1ncccc1-c1cc(C(=O)NS(C)(=O)=O)ccc1Oc1ccccc1 [Example 5]" grouplabel="Condition met"
molecule="COc1ncccc1-c1cc(C(=O)NS(C)(=O)=O)ccc1Oc1cnc(C2CC2)c(Cl)c1 [Example 94]" grouplabel="Condition met"
molecule="CCc1ccc(Oc2ccc(C(=O)NS(C)(=O)=O)cc2-c2cccnc2OC)cn1 [Example 63]" grouplabel="Condition not met"
molecule="COc1ncccc1-c1cc(C(=O)NS(C)(=O)=O)ccc1Oc1ccc(Cl)cc1F [Example 64]" grouplabel="Condition met"
molecule="COc1ncccc1-c1cc(C(=O)NS(C)(=O)=O)ccc1Oc1ccc(F)cc1 [Example 91]" grouplabel="Condition met"
molecule="COc1cc(Cl)ccc1Oc1ccc(C(=O)NS(C)(=O)=O)cc1-c1cccnc1OC [Example 1]" grouplabel="Condition not met"
molecule="CCc1ccc(Oc2ccc(C(=O)NS(C)(=O)=O)cc2-c2cccnc2OC)cc1 [Example 77]" grouplabel="Condition met"

###

assayedTarget: Nav1.7 (or SCN9A) channel (Homo sapiens)
Construct: expressed in transfected cells
measurementDescription: Nav1.7 PatchXpress automated whole-cell electrophysiology in HEK cells expressing hSCN9A
Type: cell-based
protocolConditions: estimated IC50 from single point data, PatchXpress assay, held at V1/2 of inactivation, read-out: Nav1.7 EIC50
propertyName: IC50 (µM)

compound="COc1ncccc1-c1cc(C(=O)NS(C)(=O)=O)ccc1Oc1ccc(Cl)cn1 [Example 76]" assayedtarget="Nav1.7 (or SCN9A) channel (Homo sapiens)" propertyname=IC50 limitsign=> quantitativeresult=1
compound="COc1ncccc1-c1cc(C(=O)NS(C)(=O)=O)ccc1Oc1ccccc1OC(F)(F)F [Example 58]" assayedtarget="Nav1.7 (or SCN9A) channel (Homo sapiens)" propertyname=IC50 limitsign=> quantitativeresult=1
compound="CCc1ccccc1Oc1ccc(C(=O)NS(C)(=O)=O)cc1-c1cccnc1OC [Example 80]" assayedtarget="Nav1.7 (or SCN9A) channel (Homo sapiens)" propertyname=IC50 limitsign=> quantitativeresult=1
compound="CS(=O)(=O)NC(=O)c1ccc(Oc2ccc(Cl)cc2)c(-c2ccccc2C(F)(F)F)c1 [Example 35]" assayedtarget="Nav1.7 (or SCN9A) channel (Homo sapiens)" propertyname=IC50 limitsign== quantitativeresult=8
compound="COc1cc(Cl)ccc1Oc1cc(F)c(C(=O)NS(C)(=O)=O)cc1-c1cccnc1OC [Example 4]" assayedtarget="Nav1.7 (or SCN9A) channel (Homo sapiens)" propertyname=IC50 limitsign== quantitativeresult=4.5
compound="COc1ncccc1-c1cc(C(=O)NS(C)(=O)=O)ccc1Oc1cnc(OC(C)C)c(Cl)c1 [Example 7]" assayedtarget="Nav1.7 (or SCN9A) channel (Homo sapiens)" propertyname=IC50 limitsign== quantitativeresult=0.066

These data points were gathered from patent US8772343B2.
